Target: StARkin domain of Lam6 (Saccharomyces cerevisiae, UniProt Q08001)
Sequence (Q08001 401-579): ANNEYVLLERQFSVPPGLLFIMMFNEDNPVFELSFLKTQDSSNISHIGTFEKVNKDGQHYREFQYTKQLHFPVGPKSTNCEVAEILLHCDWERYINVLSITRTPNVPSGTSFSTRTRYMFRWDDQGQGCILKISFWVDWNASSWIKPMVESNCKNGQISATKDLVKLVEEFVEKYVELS
endpointLabel: Kd (µM)
Quick note: give the figure in µM, leave out the unit.

For the compound shown here, CC(C)[C@@H](C)/C=C/[C@@H](C)[C@H]1CC[C@H]2C3=CC=C4C[C@@H](O)CC[C@]4(C)[C@H]3CC[C@]12C , give the reported Kd.
8.6

###

Biological target: Sip3^StARkin (Saccharomyces cerevisiae)
Construct: Sip3^StARkin (733–1002 aa, 32.5 kDa); made in house; host or cells: Lactococcus lactis DML1
Sequence (P38717 733-1002): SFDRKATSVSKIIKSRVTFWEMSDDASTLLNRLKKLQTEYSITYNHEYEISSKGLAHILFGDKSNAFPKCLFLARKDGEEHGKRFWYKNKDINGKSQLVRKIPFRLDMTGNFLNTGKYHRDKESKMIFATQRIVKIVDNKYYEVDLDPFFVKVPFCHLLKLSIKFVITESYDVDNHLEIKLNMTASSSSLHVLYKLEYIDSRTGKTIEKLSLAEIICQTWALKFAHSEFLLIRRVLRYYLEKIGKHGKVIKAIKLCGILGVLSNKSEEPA
Assay: biochemical
Assay type: binding
Where a name gives a salt, the structure may show the parent alone.
endpointLabel: Kd (nM)
Quick note: give the figure in nM, leave out the unit.

For the compound shown here, CC(C)CCC[C@@H](C)[C@H]1CC[C@H]2[C@@H]3CC=C4C[C@@H](OS(=O)(=O)O)CC[C@]4(C)[C@H]3CC[C@]12C [cholesterol sulfate] , give the reported Kd.
530
